Target: Acetylcholinesterase (Homo sapiens, UniProt P22303)
Sequence (P22303 whole entry): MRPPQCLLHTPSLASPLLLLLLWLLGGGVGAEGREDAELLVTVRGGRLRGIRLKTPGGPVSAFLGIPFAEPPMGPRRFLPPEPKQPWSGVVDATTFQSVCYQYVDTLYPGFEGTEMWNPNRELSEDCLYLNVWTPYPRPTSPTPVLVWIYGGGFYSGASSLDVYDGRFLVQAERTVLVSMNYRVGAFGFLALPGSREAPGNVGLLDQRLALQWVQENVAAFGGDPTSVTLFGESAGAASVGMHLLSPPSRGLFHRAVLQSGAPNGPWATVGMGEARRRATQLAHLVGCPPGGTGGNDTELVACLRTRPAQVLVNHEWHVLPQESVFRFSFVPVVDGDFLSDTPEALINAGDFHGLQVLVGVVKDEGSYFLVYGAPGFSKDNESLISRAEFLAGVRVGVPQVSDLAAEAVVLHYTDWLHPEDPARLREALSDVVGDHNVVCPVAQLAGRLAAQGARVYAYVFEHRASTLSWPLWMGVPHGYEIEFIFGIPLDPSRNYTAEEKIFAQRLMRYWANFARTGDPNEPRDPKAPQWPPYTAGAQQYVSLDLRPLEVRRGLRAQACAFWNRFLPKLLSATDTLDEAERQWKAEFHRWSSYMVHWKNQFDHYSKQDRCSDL
Assay: Inhibition of human recombinant AChE using acetylthiocholine iodide as substrate by Ellman's method
measure: pIC50
Keep it numeric: pIC50 is minus log10 of the concentration in mol/L.

Given the entry C#CCN1CCc2nc3nc(N4CCCC4)c(C#N)cc3c(N)c2C1 , report its measured pIC50.
6.19

* * *

Target: Amine oxidase [flavin-containing] B (Rattus norvegicus, UniProt P19643)
Sequence (P19643 whole entry): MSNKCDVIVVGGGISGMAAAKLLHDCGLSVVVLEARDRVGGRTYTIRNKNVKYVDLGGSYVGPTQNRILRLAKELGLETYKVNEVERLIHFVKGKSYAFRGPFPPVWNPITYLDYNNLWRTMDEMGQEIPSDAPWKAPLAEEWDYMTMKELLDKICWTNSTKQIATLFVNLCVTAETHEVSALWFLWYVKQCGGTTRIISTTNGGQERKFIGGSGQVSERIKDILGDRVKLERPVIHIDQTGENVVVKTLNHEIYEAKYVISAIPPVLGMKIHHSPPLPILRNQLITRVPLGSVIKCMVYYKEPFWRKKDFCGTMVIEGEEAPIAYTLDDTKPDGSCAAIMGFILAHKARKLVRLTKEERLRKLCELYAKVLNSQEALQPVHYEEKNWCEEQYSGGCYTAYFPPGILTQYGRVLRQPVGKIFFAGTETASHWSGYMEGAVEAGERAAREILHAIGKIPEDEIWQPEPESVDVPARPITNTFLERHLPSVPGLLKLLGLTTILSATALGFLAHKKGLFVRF
So I've got a bunch of molecules here, and I need their pIC50 values.
Keep it numeric: pIC50 is minus log10 of the concentration in mol/L.

Which pIC50 is reported with Amine oxidase [flavin-containing] B (Rattus norvegicus, UniProt P19643) for this entry: C#CCN1CCc2nc3nc(Cl)c(C#N)cc3c(N)c2C1 ?
3.18

Which pIC50 is reported with Amine oxidase [flavin-containing] B (Rattus norvegicus, UniProt P19643) for this entry: C#CCN1CCc2nc3nc(N4CCCCC4)c(C#N)cc3c(N)c2C1 ?
3.53

Which pIC50 is reported with Amine oxidase [flavin-containing] B (Rattus norvegicus, UniProt P19643) for this entry: C#CCNCc1cc2cc(OCc3ccccc3)ccc2[nH]1 ?
7.66

Which pIC50 is reported with Amine oxidase [flavin-containing] B (Rattus norvegicus, UniProt P19643) for this entry: C#CCN1CCc2nc3ccccc3c(N)c2C1 ?
3.21

Which pIC50 is reported with Amine oxidase [flavin-containing] B (Rattus norvegicus, UniProt P19643) for this entry: C#CCN1CCc2nc3nc(N4CCCC4)c(C#N)cc3c(N)c2C1 ?
3.45

Which pIC50 is reported with Amine oxidase [flavin-containing] B (Rattus norvegicus, UniProt P19643) for this entry: CNCc1cc2cc(OCc3ccccc3)ccc2n1C ?
4.36

Which pIC50 is reported with Amine oxidase [flavin-containing] B (Rattus norvegicus, UniProt P19643) for this entry: C#CCN1CCc2nc3nc(N(C)C)c(C#N)cc3c(N)c2C1 ?
3.55
